- assay notes: protein stability index of a GFP-peptide fusion (GPS, HEK-293T) (PSI 1-6); higher = more stable;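 also: 24-mer peptide tiles fused after GFP, lentivirally expressed, FACS-sorted into six equal bins by GFP/DsRed ratio, decoded by Illumina sequencing, PSI is the read-weighted mean bin number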
- condition notes: treatment: MLN4924 1 uM, 8 h; c terminus: a fixed tail appended
protein stability index reference

| polymer sequence | protein stability index |
| --- | --- |
| VTSYCRSATLVGFTVGSVLGQILV [SLC19A2] | 2.84 |
| LPHLQDSFVDKLLDLMPRLMTSKP [INTS4] | 2.15 |
| SAVQYFQFYGYLSQQQNMMQDYVR [CARM1] | 3.35 |
| QILGQTLKASMRELGLLIFFLFIG [KCNA1] | 2.45 |
| GGARSLWRGNGINVLKIAPESAIK [SLC25A25] | 3.19 |
| GGGISCVLQDGCVFEKAGVSISVV [CPOX] | 2.41 |
| QEYNIPGVIQSVIGWKTVRMYPFQ [CDS2] | 2.42 |
| DQAGGEGKHITVFKTYISPWERAM [MYOZ1] | 2.84 |
| DMEKILEIIRVILKLYEQWKNFDE [CCNC] | 2.66 |
| CSRTTGYQILTLEKDQEQVVMNLD [GMCL1] | 3.43 |
| GAGFGGGLGAGFGGGFAGGDGLLV [KRT16] | 2.46 |
| ASPMSADRVVAFMDHIRIFQEQVE [NR2F2] | 3.1 |
| HPIEEAAEEHREKLLKQMRILWKK [TRIM43] | 3.7 |
| LREINFKIVEFNPMVLKGKIRPDS [GLT8D2] | 2.41 |
| DEGASAGQGPKPEADSQEQGHPQT [GAGE1] | 5.48 |
| TNRWSFDGIDRWIKEIDEHAPGVP [RAB40C] | 3.97 |
| DLRKHRRKLLSPVSREENREDKAT [PPFIA4] | 4.84 |
| PHKTFRKLRLFDTPHTPKSLLSKA [WEE1] | 2.98 |
| MHVACQHGQENIVRILLRRGVDVS [RIPK4] | 2.24 |
| IGRAAGTGFTVNVAWNGPRMGDAD [HDAC6] | 3.15 |
| TEAGGVLMDVTGGPFDLMSRRVIA [IMPA1] | 3.37 |
| LVNDDDEEADDTRYTQGTGGDEVD [ZC3H15] | 5.67 |
| TLERYMCSRFFIDFPDILEQQRKL [TENT5C] | 2.37 |
| KDLDGMDADILGLKKSNSAPSKKA [FBF1] | 5 |
| LYAVGGQDGVSCLNIVERYDPKEN [KLHL20] | 3.96 |
| SVEEQLSLISGCPNIQEAVEGAMH [CRYL1] | 4.64 |
| LLHSQARLAELEAQVRKLELERAQ [FBF1] | 3.5 |

====

- assay notes: protein stability index of a GFP-peptide fusion (GPS, HEK-293T) (PSI 1-6); higher = more stable
- condition notes: treatment: MLN4924 1 uM, 8 h; c terminus: a fixed tail appended
Entry flag: Condition met if protein stability index reaches 3; Condition not met if it does not.

| polymer sequence | label |
| --- | --- |
| SVAGWSLFSLNVISLTCVSVAFAV [SLC19A2] | Condition met |
| LDLLSELYQKQPKIGYHLLYYLRA [INTS3] | Condition not met |
| RNLLVENIIDIYKQESTRPEKKSD [TRIM55] | Condition met |
| YPRYPDIHDLDLTLLNPRMIVDVT [CLCN6] | Condition not met |
| SSEEFEDKWFRKIKDHFCPFENQF [C8orf76] | Condition not met |
| EEPVPRERDRDPCGGSGGGGGGGG [LURAP1L] | Condition met |
| LQGLSLIVTWFMLLYAQGLLAIQF [SLC19A2] | Condition met |
| RQITSPVSGINGDIRAKKIASIAD [HNF4A] | Condition met |
| AQRVRAAMFPETLDEGMQIPSTQF [CTNNB1] | Condition met |
| IPVAMEHQPPYIIAVLPRYVEIRT [VPS39] | Condition not met |
| PPRRGVSGDRDENSFSLNSSISSS [MAP2] | Condition met |
| NPFAKGFRENGRNCKRERDARVKR [TBX6] | Condition met |
| NVGGALYYTTMQTLTKQDTMLKAM [KCTD10] | Condition not met |
| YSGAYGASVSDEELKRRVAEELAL [CHCHD3] | Condition met |
| HGQLDDLIFIFYKNGLPSPERSYV [PPEF2] | Condition not met |
| KQYAMQRPNDDSLAFLDKIKSVKE [IQUB] | Condition met |
| LGERRAEPHSLLHLSRLCVRHNLG [SPSB2] | Condition met |
| GPIQLWQFLLELLSDKSCQSFISW [ETS2] | Condition not met |
| PTTRNYPELNNNQYNRSSNSNGGN [CDC14A] | Condition met |
| SVNICGMNEHPVCSRTWTNRLCHQ [SPAG8] | Condition not met |
| SEKAANDDHSVRVAREDVRESCPP [CPXM2] | Condition met |
| PMLETASKLLLSGTADGADLRTVD [ANKRD17] | Condition met |
| KGTILKASVDYIRKLQKEQQRSKD [TFE3] | Condition met |
| DTDRDGYISHRELGDCMRTLGYMP [CABP4] | Condition met |
| RKDFSELRSAGVEQLMYIKEDLII [FAM50A] | Condition not met |
| ILGPSSAYTQTQFHNLRNTLDGYG [NFE2L1] | Condition not met |
| FELDLGKKVLNLLKGAFPARLKKV [PTPN9] | Condition not met |

====

- assay notes: protein stability index of a GFP-peptide fusion (GPS, HEK-293T) (PSI 1-6); higher = more stable
- condition notes: treatment: DMSO; c terminus: a fixed tail appended
Each item that follows carries a reported protein stability index.

| polymer sequence | protein stability index |
| --- | --- |
| QRYILYWRKRFTEQPITDFCSVIR [ZNF277] | 1.93 |
| GTLSMGVPQIFKYGETCFPKGRFE [ZNF24] | 2.83 |
| ETILHFFVQILLALHHVHTHLILH [NEK8] | 3.19 |
| LKQNFSKSWHDMQTTTAYKKTHET [TPD52L1] | 3.6 |
| EKSQAYPRRRRPGCYAYRQNPEAI [MYORG] | 3.34 |
| AKSVLKERGLKKIRLGIEGYPTYK [BTBD10] | 2.79 |
| IAVLPRYVEIRTFEPRLLVQSIEL [VPS39] | 2.97 |
| YLSQTDGAGDWREKEAKDLTELVQ [FUT8] | 4.52 |
| LSDDYEQVRSAAVQLIWVVSQLYP [INTS4] | 2.08 |
| SAIQALRSSVSRVFDCLKDGMRNK [MED27] | 2.7 |
| GADNIDVSHPIIYRGAVYADNMEF [FEM1B] | 3.11 |
| NTGYRLQNNENNISCVERGWSTPP [CFHR2] | 3.67 |
| PPYLPLAVPEDLADRLVRVHGDPA [FUT8] | 4.22 |

====

- assay notes: protein stability index of a GFP-peptide fusion (GPS, HEK-293T) (PSI 1-6); higher = more stable
- condition notes: treatment: DMSO; c terminus: a fixed tail appended

| polymer sequence | protein stability index |
| --- | --- |
| SAEKCGPPPPIDNGDITSFLLSVY [CFHR2] | 2.4 |
| HFRPRFHPLPTVIIVNLLWFIHLV [TMEM192] | 2.63 |
| QRQKYLSLQQMQELSNILNLSYKQ [NANOGP8] | 2.57 |
| LADSDTLSSAEENEPSQAETAVEG [C18orf25] | 5.55 |
| ARLTYSIVGNQVQGAPASSFVYVN [PCDHGC5] | 2.38 |
| QAQKCYRDLALVSRDGMNIVLNKI [INTS3] | 2.29 |
| GGTGSGDGNKIFLCHCGKAFSHKS [ZBTB22] | 2.27 |
| DNPPTFSQVSYFTYIPENNARGAS [PCDHGA10] | 3.44 |
| VSTRLTVLREDQIPRGFPTIDMGP [PTPRD] | 2.33 |
| RPEEEEDELAHRCSSFMAPPVTDL [CPOX] | 5.05 |
| QELCEGLLEESDGEGEPGQGEGPE [NOP53] | 5.6 |
| TDAHVWNKSVTLYTVKDKATGEVL [NLN] | 3.46 |
| AFGNPKFALQGLPLNCAPCPRRSE [IRX6] | 4.2 |
| LRTLFTDLFEKKGYTFDYAYDWVG [CSNK1G1] | 2.2 |
| GKDAKTTNGHGGEAAEGKSLGSAL [TRIM29] | 5.36 |
| EQVFNAVMAWVKYSIQERRPQLPQ [KLHL20] | 2.75 |
| IFCIKRFTKNNFFVEKNPTIVNFP [USP39] | 3.02 |
| APVAEAWIPQAGPPELNYGATGEC [ZNF449] | 4.78 |
| PNSTKNQSLPKASPVTTSPTAATT [LCOR] | 4.91 |
| RQITSPVSGINGDIRAKKIASIAD [HNF4A] | 4.1 |
| TWGQIKKTTQEAEKLLERQGQAKT [CDK11A] | 4.98 |
| GCALTTFSVLEGEKNNHRAKDLRA [SOAT1] | 3.49 |
| PVQASQLEEEFDSDSGLSLDSSHS [NFE2L1] | 5.51 |
| LELLGASFANDRENYDIIKTYHYL [FEM1B] | 2.32 |
| HSEKMAQYLEEERHMREENLRLQR [CCDC6] | 4.91 |
| ANGSEIHKHVHFSSSFTSIASEWF [SLC22A15] | 2.44 |
